The origin of these recorded values is patent US20170129921A1.

Collected Ki values appear next to each entry.
Molecular target: T1, C5a receptor 1 (human, UniProt P21730 1-350)
T1 construct: whole, on cells; Also used here for native C5a1 on human macrophages; also called C5a1; CD88
T1 sequence (looked up): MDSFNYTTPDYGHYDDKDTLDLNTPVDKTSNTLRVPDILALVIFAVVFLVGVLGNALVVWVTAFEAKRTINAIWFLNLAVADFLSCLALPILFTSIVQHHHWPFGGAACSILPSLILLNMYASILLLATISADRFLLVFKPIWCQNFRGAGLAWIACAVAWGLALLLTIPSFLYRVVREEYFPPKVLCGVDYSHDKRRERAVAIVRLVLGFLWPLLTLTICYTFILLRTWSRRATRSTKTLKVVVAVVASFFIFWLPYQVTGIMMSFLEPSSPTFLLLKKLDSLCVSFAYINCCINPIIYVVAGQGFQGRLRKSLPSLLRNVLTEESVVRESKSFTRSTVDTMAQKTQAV
Assay: 125I-C5a displacement on C5aR1 membranes
Give the number; µM is assumed, so skip it.

Ac-LIRLWR-OH (Synthetic, computationally designed hexapeptide based on the C-terminus of C5a) [Peptide P59, Ac-LIRLWR-OH]    466

Let us examine a further case.
Task item: Using the record for Ac-RHYPYWR-OH (Synthetic, computationally designed heptapeptide based on the C-terminus of C5a) [Peptide P32, Ac-RHYPYWR-OH] , state its measured Ki.
Reply: 234
